test system: Mycobacterium tuberculosis Erdman (pMV306hsp+LuxG13); experiment: GRinf, normalised growth-rate inhibition at infinite dose (GR value (unitless, negative = killing)); higher = less potent; conditions: growth medium: cholesterol 0.2 mM (cholesterol-high); time point: terminal time point
measure: GRinf

1) NNC(=O)c1ccncc1 [isoniazid] + CC(C)=CCC/C(C)=C/CNCCNC1C2CC3CC(C2)CC1C3 [SQ109]	-0.87
2) CC(C)/N=c1\cc2n(-c3ccc(Cl)cc3)c3ccccc3nc-2cc1Nc1ccc(Cl)cc1 [clofazimine] + CC(C)=CCC/C(C)=C/CNCCNC1C2CC3CC(C2)CC1C3 [SQ109]	-0.823
3) CC(C)/N=c1\cc2n(-c3ccc(Cl)cc3)c3ccccc3nc-2cc1Nc1ccc(Cl)cc1 [clofazimine] + CC(=O)NC[C@H]1CN(c2ccc(N3CCSCC3)c(F)c2)C(=O)O1 [sutezolid]	-0.833

---

tested on: Mycobacterium tuberculosis Erdman (pMV306hsp+LuxG13); experiment: AUC25, normalised area under the dose-response curve up to IC25 (normalised AUC (unitless)); higher = more potent; settings: growth medium: cholesterol 0.2 mM (cholesterol-high); time point: terminal time point
measure: AUC25

1. CC(C)/N=c1\cc2n(-c3ccc(Cl)cc3)c3ccccc3nc-2cc1Nc1ccc(Cl)cc1 [clofazimine] + CC(=O)NC[C@H]1CN(c2ccc(N3CCSCC3)c(F)c2)C(=O)O1 [sutezolid]	0.116
2. COc1c(N2C[C@@H]3CCCN[C@@H]3C2)c(F)cc2c(=O)c(C(=O)O)cn(C3CC3)c12 [moxifloxacin] + CC(=O)NC[C@H]1CN(c2ccc(N3CCSCC3)c(F)c2)C(=O)O1 [sutezolid]	0.12
3. NNC(=O)c1ccncc1 [isoniazid] + CC(C)=CCC/C(C)=C/CNCCNC1C2CC3CC(C2)CC1C3 [SQ109]	0.0743
4. CO[C@H]1/C=C/O[C@@]2(C)Oc3c(C)c(O)c4c(O)c(c(/C=N/N5CCN(C6CCCC6)CC5)c(O)c4c3C2=O)NC(=O)/C(C)=C\C=C\[C@H](C)[C@H](O)[C@@H](C)[C@@H](O)[C@@H](C)[C@H](OC(C)=O)[C@@H]1C [rifapentine] + CC(=O)NC[C@H]1CN(c2ccc(N3CCSCC3)c(F)c2)C(=O)O1 [sutezolid]	0.0787
5. NC(=O)c1cnccn1 [pyrazinamide] + CC(C)=CCC/C(C)=C/CNCCNC1C2CC3CC(C2)CC1C3 [SQ109]	0.0665

---

test system: Mycobacterium tuberculosis Erdman (pMV306hsp+LuxG13); assay: log2 fractional inhibitory concentration at 90% inhibition (log2 FIC); higher = more antagonistic; conditions: growth medium: cholesterol 0.05 mM; time point: terminal time point
measure: log2 fractional inhibitory concentration

1) CC[C@@H](CO)NCCN[C@@H](CC)CO [ethambutol] + CC(=O)NC[C@H]1CN(c2ccc(N3CCSCC3)c(F)c2)C(=O)O1 [sutezolid]	-1.28
2) CC(C)/N=c1\cc2n(-c3ccc(Cl)cc3)c3ccccc3nc-2cc1Nc1ccc(Cl)cc1 [clofazimine] + CC(=O)NC[C@H]1CN(c2ccc(N3CCSCC3)c(F)c2)C(=O)O1 [sutezolid]	-0.782
3) NNC(=O)c1ccncc1 [isoniazid] + CC(=O)NC[C@H]1CN(c2ccc(N3CCSCC3)c(F)c2)C(=O)O1 [sutezolid]	0.0381
4) COc1nc2ccc(Br)cc2cc1[C@@H](c1ccccc1)[C@@](O)(CCN(C)C)c1cccc2ccccc12 [bedaquiline] + CC(=O)NC[C@H]1CN(c2ccc(N3CCSCC3)c(F)c2)C(=O)O1 [sutezolid]	0.434
5) CO[C@H]1/C=C/O[C@@]2(C)Oc3c(C)c(O)c4c(O)c(c(/C=N/N5CCN(C6CCCC6)CC5)c(O)c4c3C2=O)NC(=O)/C(C)=C\C=C\[C@H](C)[C@H](O)[C@@H](C)[C@@H](O)[C@@H](C)[C@H](OC(C)=O)[C@@H]1C [rifapentine] + CC(=O)NC[C@H]1CN(c2ccc(N3CCSCC3)c(F)c2)C(=O)O1 [sutezolid]	-0.142

---

Each entry below carries its reported GRinf.
tested on: Mycobacterium tuberculosis Erdman (pMV306hsp+LuxG13); assay: GRinf, normalised growth-rate inhibition at infinite dose (GR value (unitless, negative = killing)); higher = less potent; conditions: growth medium: butyrate 5 mM; time point: terminal time point
measure: GRinf

1) CO[C@H]1/C=C/O[C@@]2(C)Oc3c(C)c(O)c4c(O)c(c(/C=N/N5CCN(C)CC5)c(O)c4c3C2=O)NC(=O)/C(C)=C\C=C\[C@H](C)[C@H](O)[C@@H](C)[C@@H](O)[C@@H](C)[C@H](OC(C)=O)[C@@H]1C [rifampicin] + CC(C)=CCC/C(C)=C/CNCCNC1C2CC3CC(C2)CC1C3 [SQ109]	-0.032
2) CO[C@H]1/C=C/O[C@@]2(C)Oc3c(C)c(O)c4c(O)c(c(/C=N/N5CCN(C)CC5)c(O)c4c3C2=O)NC(=O)/C(C)=C\C=C\[C@H](C)[C@H](O)[C@@H](C)[C@@H](O)[C@@H](C)[C@H](OC(C)=O)[C@@H]1C [rifampicin] + CC(=O)NC[C@H]1CN(c2ccc(N3CCSCC3)c(F)c2)C(=O)O1 [sutezolid]	-0.0141

---

system: Mycobacterium tuberculosis Erdman (pMV306hsp+LuxG13); test: AUC25, normalised area under the dose-response curve up to IC25 (normalised AUC (unitless)); higher = more potent; conditions: growth medium: valerate 0.1%; time point: terminal time point
Classification field: yes = AUC25 at or over 0.08; no = AUC25 under 0.08.

1. COc1nc2ccc(Br)cc2cc1[C@@H](c1ccccc1)[C@@](O)(CCN(C)C)c1cccc2ccccc12 [bedaquiline] + CC(C)=CCC/C(C)=C/CNCCNC1C2CC3CC(C2)CC1C3 [SQ109]	no
2. CC(C)/N=c1\cc2n(-c3ccc(Cl)cc3)c3ccccc3nc-2cc1Nc1ccc(Cl)cc1 [clofazimine] + CC(=O)NC[C@H]1CN(c2ccc(N3CCSCC3)c(F)c2)C(=O)O1	no
3. O=[N+]([O-])c1cn2c(n1)OC[C@@H](OCc1ccc(OC(F)(F)F)cc1)C2 [pretomanid] + CC(=O)NC[C@H]1CN(c2ccc(N3CCSCC3)c(F)c2)C(=O)O1	yes
4. COc1nc2ccc(Br)cc2cc1[C@@H](c1ccccc1)[C@@](O)(CCN(C)C)c1cccc2ccccc12 [bedaquiline] + CC(=O)NC[C@H]1CN(c2ccc(N3CCSCC3)c(F)c2)C(=O)O1 [sutezolid]	yes

---

Listing: GRinf of selected molecules
system: Mycobacterium tuberculosis Erdman (pMV306hsp+LuxG13); assay: GRinf, normalised growth-rate inhibition at infinite dose (GR value (unitless, negative = killing)); higher = less potent; conditions: growth medium: valerate 0.1%; time point: terminal time point
measure: GRinf

1) CO[C@H]1/C=C/O[C@@]2(C)Oc3c(C)c(O)c4c(O)c(c(/C=N/N5CCN(C6CCCC6)CC5)c(O)c4c3C2=O)NC(=O)/C(C)=C\C=C\[C@H](C)[C@H](O)[C@@H](C)[C@@H](O)[C@@H](C)[C@H](OC(C)=O)[C@@H]1C [rifapentine] + CC(=O)NC[C@H]1CN(c2ccc(N3CCSCC3)c(F)c2)C(=O)O1	-0.0835
2) COc1nc2ccc(Br)cc2cc1[C@@H](c1ccccc1)[C@@](O)(CCN(C)C)c1cccc2ccccc12 [bedaquiline] + CC(C)=CCC/C(C)=C/CNCCNC1C2CC3CC(C2)CC1C3 [SQ109]	-0.127

---

test system: Mycobacterium tuberculosis Erdman (pMV306hsp+LuxG13); experiment: GRinf, normalised growth-rate inhibition at infinite dose (GR value (unitless, negative = killing)); higher = less potent; settings: growth medium: cholesterol 0.05 mM; time point: constant time point
Overview of recorded GRinf for various compounds
measure: GRinf

1. CC[C@@H](CO)NCCN[C@@H](CC)CO [ethambutol] + CC(=O)NC[C@H]1CN(c2ccc(N3CCSCC3)c(F)c2)C(=O)O1 [sutezolid]	-1
2. CC(C)/N=c1\cc2n(-c3ccc(Cl)cc3)c3ccccc3nc-2cc1Nc1ccc(Cl)cc1 [clofazimine] + CC(=O)NC[C@H]1CN(c2ccc(N3CCSCC3)c(F)c2)C(=O)O1 [sutezolid]	-1
3. NNC(=O)c1ccncc1 [isoniazid] + CC(C)=CCC/C(C)=C/CNCCNC1C2CC3CC(C2)CC1C3 [SQ109]	-0.682
4. COc1c(N2C[C@@H]3CCCN[C@@H]3C2)c(F)cc2c(=O)c(C(=O)O)cn(C3CC3)c12 [moxifloxacin] + CC(=O)NC[C@H]1CN(c2ccc(N3CCSCC3)c(F)c2)C(=O)O1 [sutezolid]	-0.918
5. CC[C@@H](CO)NCCN[C@@H](CC)CO [ethambutol] + CC(C)=CCC/C(C)=C/CNCCNC1C2CC3CC(C2)CC1C3 [SQ109]	-0.435
6. CO[C@H]1/C=C/O[C@@]2(C)Oc3c(C)c(O)c4c(O)c(c(/C=N/N5CCN(C6CCCC6)CC5)c(O)c4c3C2=O)NC(=O)/C(C)=C\C=C\[C@H](C)[C@H](O)[C@@H](C)[C@@H](O)[C@@H](C)[C@H](OC(C)=O)[C@@H]1C [rifapentine] + CC(=O)NC[C@H]1CN(c2ccc(N3CCSCC3)c(F)c2)C(=O)O1 [sutezolid]	-1
7. COc1nc2ccc(Br)cc2cc1[C@@H](c1ccccc1)[C@@](O)(CCN(C)C)c1cccc2ccccc12 [bedaquiline] + CC(C)=CCC/C(C)=C/CNCCNC1C2CC3CC(C2)CC1C3 [SQ109]	-0.737
